As shown below, each of these compounds has a reported relative cell number value.
System: BT-20
protocol: relative cell number vs DMSO control (72 h) (% of DMSO); higher = less growth inhibition (more cells)
condition_summary: sgRNA knockout: sgNT, 1000 nM
Answer with a number only.

[
  {
    "compound": "CCCS(=O)(=O)Nc1ccc(F)c(C(=O)c2c[nH]c3ncc(Cl)cc23)c1F",
    "relative cell number": 98.4
  }
]

# evaluate next
Which relative cell number reading was recorded for the compound "CC(C)c1cc(-c2n[nH]c(=O)n2-c2ccc3c(ccn3C)c2)c(O)cc1O" ?
48.5

====

Tested on: SKBR3
protocol: relative cell number vs DMSO control (72 h) (% of DMSO); higher = less growth inhibition (more cells)
condition_summary: sgRNA knockout: sgNT, 100 nM
observed_property: relative cell number
The response must contain the number and no unit.

[
  {
    "compound": "C[C@@H]1CN(CC(=O)Nc2ccc3c(c2)Cc2cccc(-c4cc(=O)cc(N5CCOCC5)o4)c2S3)C[C@H](C)O1",
    "relative cell number": 95.9
  },
  {
    "compound": "CS(=O)(=O)CCNCc1ccc(-c2ccc3ncnc(Nc4ccc(OCc5cccc(F)c5)c(Cl)c4)c3c2)o1",
    "relative cell number": 73.9
  }
]

What does the record list as relative cell number for "CC(C)OC(=O)C1=CN(C(=O)c2ccc(F)c(F)c2)CC(C)(C)c2c1[nH]c1ccccc21" ?
98.8

For "C=CCc1cccc(/C=N/NC(=O)CN2CCN(Cc3ccccc3)CC2)c1O" then?
88.5

Please do the same for "Nc1ncn([C@H]2C[C@H](O)[C@@H](CO)O2)c(=O)n1" as well.
68.3

Now consider "CN1CCN(CCOc2cc(OC3CCOCC3)c3c(Nc4c(Cl)ccc5c4OCO5)ncnc3c2)CC1" .
95.9

Please do the same for "CCC(C)(C)C(=O)O[C@H]1C[C@@H](C)C=C2C=C[C@H](C)[C@H](CC[C@@H]3C[C@@H](O)CC(=O)O3)[C@H]21" as well.
60.8

Here is the next compound: "COC(=O)[C@]12CCC(C)(C)C[C@H]1[C@H]1C(=O)C=C3[C@@]4(C)C=C(C#N)C(=O)C(C)(C)[C@@H]4CC[C@@]3(C)[C@]1(C)CC2"
66.6

Follow-up entry: "O=c1cc(-c2cccc3c2Sc2ccccc2S3)oc(N2CCOCC2)c1"
94.4

Try this compound next: "COc1cc(/C=C/C(=O)CC(=O)/C=C/c2ccc(O)c(OC)c2)ccc1O"
82.9

Note, next up: "O=[N+]([O-])c1ccc(O)c2ncccc12"
91.1

What do we get for "Cc1cc2c(C(C)C)c(O)c(O)c(C=O)c2c(O)c1-c1c(C)cc2c(C(C)C)c(O)c(O)c(C=O)c2c1O" ?
94.3

"CC(C)(C(=O)NCC(F)(F)C(F)(F)F)C(=O)N[C@@H]1C(=O)Nc2ccccc2-c2ccccc21" ?
133

Same read-out for "CCC[C@H](NC(=O)/C(C#N)=C/c1cccc(Br)n1)c1ccccc1" ?
51.2

Now this one: CN(Cc1cnc2nc(N)nc(N)c2n1)c1ccc(C(=O)N[C@@H](CCC(=O)O)C(=O)O)cc1 [Methotrexate]
41

# repeat for "COc1cc(OC)c(/C=C/S(=O)(=O)Cc2ccc(OC)c(NCC(=O)O)c2)c(OC)c1"
5.08

Try this compound too: "CNC(=O)c1cc(Oc2ccc(NC(=O)Nc3ccc(Cl)c(C(F)(F)F)c3)cc2)ccn1"
97.1

====

Tested on: BT-20
protocol: relative cell number vs DMSO control (72 h) (% of DMSO); higher = less growth inhibition (more cells)
condition_summary: sgRNA knockout: sgNT, 100 nM
Entries annotated with measured relative cell number
Note: the reply should be a number with no unit written.

Known relative cell number results, listed for orientation:
[
  {
    "compound": "CCC(C)SSc1ncc[nH]1 (stereo not drawn) [PX12]",
    "relative cell number": 132
  },
  {
    "compound": "COCC[n+]1c2c(n(Cc3cnccn3)c1C)C(=O)c1ccccc1C2=O [YM155]",
    "relative cell number": 4.66
  },
  {
    "compound": "CN1CCN(CCOc2cc(OC3CCOCC3)c3c(Nc4c(Cl)ccc5c4OCO5)ncnc3c2)CC1 [Saracatinib]",
    "relative cell number": 85.8
  },
  {
    "compound": "COc1cc2nccc(Oc3ccc(NC(=O)C4(C(=O)Nc5ccc(F)cc5)CC4)cc3)c2cc1OC [Cabozantinib]",
    "relative cell number": 98.3
  },
  {
    "compound": "c1ccc2c(Oc3nc(Nc4ccc(N5CCOCC5)cc4)c4ncn(C5CCCCC5)c4n3)cccc2c1 [Purmorphamine]",
    "relative cell number": 99.6
  },
  {
    "compound": "COc1nc(N)nc2c1ncn2[C@@H]1O[C@H](CO)[C@@H](O)[C@@H]1O [Nelarabine]",
    "relative cell number": 85.5
  },
  {
    "compound": "CC(C)(C)c1nc(-c2cccc(NS(=O)(=O)c3c(F)cccc3F)c2F)c(-c2ccnc(N)n2)s1 [Dabrafenib]",
    "relative cell number": 116
  },
  {
    "compound": "COc1cc(/C=C/C(=O)CC(=O)/C=C/c2ccc(O)c(OC)c2)ccc1O [Curcumin]",
    "relative cell number": 107
  },
  {
    "compound": "CCn1c(=O)c2c(nc(/C=C/c3ccc(OC)c(OC)c3)n2C)n(CC)c1=O [Istradefylline]",
    "relative cell number": 104
  },
  {
    "compound": "COc1cc2nc(N3CCCN(C)CC3)nc(NC3CCN(Cc4ccccc4)CC3)c2cc1OC",
    "relative cell number": 91.6
  }
]

Bench note: what relative cell number did COc1cc(CCc2cc(NC(=O)c3ccc(N4CC(C)NC(C)C4)cc3)n[nH]2)cc(OC)c1 (stereo not drawn) [AZD4547] show?
94.7

Can you check CN(C)C/C=C/C(=O)Nc1cc2c(Nc3ccc(F)c(Cl)c3)ncnc2cc1O[C@H]1CCOC1 [Afatinib] next?
66.9

Similarly, CN(C)C(=O)c1ccc(S(=O)(=O)c2ccc(NC(=O)[C@@](C)(O)C(F)(F)F)c(Cl)c2)cc1 [AZD7545] ?
103

Also COc1cc(OC)c(/C=C/S(=O)(=O)Cc2ccc(OC)c(NCC(=O)O)c2)c(OC)c1 [Rigosertib] , if possible.
70.2

Also, CS(=O)(=O)CCNCc1ccc(-c2ccc3ncnc(Nc4ccc(OCc5cccc(F)c5)c(Cl)c4)c3c2)o1 [Lapatinib] please.
84.7

====

System: SKBR3
protocol: relative cell number vs DMSO control (72 h) (% of DMSO); higher = less growth inhibition (more cells)
condition_summary: sgRNA knockout: sgNT, 10 nM
Below, each entry is listed with its recorded relative cell number.
Lab note: jot down the number only; don't add units.

[
  {
    "chemical_smiles": "CCCc1nn(C)c2c(=O)[nH]c(-c3cc(S(=O)(=O)N4CCN(C)CC4)ccc3OCC)nc12",
    "relative cell number": 82.2
  },
  {
    "chemical_smiles": "O=C(O)CC[C@H]1CC[C@@](c2cc(F)ccc2F)(S(=O)(=O)c2ccc(Cl)cc2)CC1",
    "relative cell number": 172
  },
  {
    "chemical_smiles": "CC(C)(C#N)c1ccc(N2C(=O)OCc3cnc4ccc(-c5cnc6ccccc6c5)cc4c32)cc1",
    "relative cell number": 101
  },
  {
    "chemical_smiles": "CC(C)C[C@H](NC(=O)CNC(=O)c1cc(Cl)ccc1Cl)B(O)O",
    "relative cell number": 87.5
  },
  {
    "chemical_smiles": "Cc1cnc(-c2cnc(NCCNc3ccc(C#N)cn3)nc2-c2ccc(Cl)cc2Cl)[nH]1",
    "relative cell number": 99.6
  }
]

Item under review: "COc1cc(Nc2ncc3c(n2)-c2ccc(Cl)cc2C(c2c(F)cccc2OC)=NC3)ccc1C(=O)O" . Reported relative cell number?
121

Follow-up item: "N[C@@H](CC(=O)N1CCn2c(nnc2C(F)(F)F)C1)Cc1cc(F)c(F)cc1F"
87.3

Similarly, "FC(F)c1nc2ccccc2n1-c1nc(N2CCOCC2)nc(N2CCOCC2)n1" ?
93.1

====

System: BT-20
protocol: relative cell number vs DMSO control (72 h) (% of DMSO); higher = less growth inhibition (more cells)
condition_summary: sgRNA knockout: sgNT, 1000 nM
Mark true (1) for reported relative cell number of 90 or greater; mark false (0) for anything smaller.

Here are 4 compounds together with their reported answers.
[
  {
    "compound": "COc1cc2ncnc(Nc3ccc(F)c(Cl)c3)c2cc1OCCCN1CCOCC1 [Gefitinib]",
    "experimental_target": "BT-20",
    "category_label": "false (0)"
  },
  {
    "compound": "CC[C@]1(O)C[C@H]2CN(CCc3c([nH]c4ccccc34)[C@@](C(=O)OC)(c3cc4c(cc3OC)N(C=O)[C@H]3[C@@](O)(C(=O)OC)[C@H](OC(C)=O)[C@]5(CC)C=CCN6CC[C@]43[C@@H]65)C2)C1 [Vincristine]",
    "experimental_target": "BT-20",
    "category_label": "false (0)"
  },
  {
    "compound": "O=C(CCc1ccc(O)cc1)c1c(O)cc(O)cc1O [Phloretin]",
    "experimental_target": "BT-20",
    "category_label": "true (1)"
  },
  {
    "compound": "CCCc1nn(C)c2c(=O)[nH]c(-c3cc(S(=O)(=O)N4CCN(C)CC4)ccc3OCC)nc12 [Sildenafil]",
    "experimental_target": "BT-20",
    "category_label": "true (1)"
  }
]

Next:
Evaluate CCc1c2c(nc3ccc(O)cc13)-c1cc3c(c(=O)n1C2)COC(=O)[C@]3(O)CC [SN38] : relative cell number at minimum 90?
false (0)
